Target: T1, Shp2 N-terminal SH2 domain (Shp2_(NSH2)) (UniProt Q06124 6-102)
T1 construct: Shp2 (PTPN11), N-terminal SH2 domain; Atto 488 labelled in MST; uniformly 15N-labelled in the NMR titration; Perturbed residues up to Y100 are named, so the construct reaches at least residue 100; also called Shp2-NSH2 domain; source: E. coli BL21 (DE3), pET28b, purified (Talon buffers, Superdex SD75)
T1 sequence (looked up): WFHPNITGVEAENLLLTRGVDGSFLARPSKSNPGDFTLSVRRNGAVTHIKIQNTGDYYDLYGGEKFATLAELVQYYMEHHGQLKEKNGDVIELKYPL
Experiment: MST; target protein labelled with Atto 488 NHS ester, 100 nM; unlabelled ligand serially diluted; Monolith NT.115; 25 °C; 20 mM HEPES pH 7.5, 150 mM NaCl, 0.5 mM TCEP, 0.005% Tween 20
Conditions: both partners purified
VALUE_KIND: pKd
Lab note — pKd values are minus log10 of concentrations in M.

Note down pKd recorded for isolated NSH3 domain of Grb2 (Grb2_(NSH3)) (domain or fragment) MEAIAKYDFKATADDELSFKRGDILKVLNEECDQNWYKAELNGKDGFIPKNYIEMKPH 3.37
